biological target: T1, recombinant human IL4Rα-his protein (in house made) (human, UniProt P24394 26-232, limits assumed); experiment: SPR (Biacore), antibody captured, IL4Rα-his flowed
T1 construct: also called Human IL4Ra-his
pKd: −log10 of the molar value.
readout-type: pKd

• mouse antibody C2C1A1A1 (antibody, V domains shown, Mouse hybridoma mAb; also called Mouse C2C1A1A1) VH: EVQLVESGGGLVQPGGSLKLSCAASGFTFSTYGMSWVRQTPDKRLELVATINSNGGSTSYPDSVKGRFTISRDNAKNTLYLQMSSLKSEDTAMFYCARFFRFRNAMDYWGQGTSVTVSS VL: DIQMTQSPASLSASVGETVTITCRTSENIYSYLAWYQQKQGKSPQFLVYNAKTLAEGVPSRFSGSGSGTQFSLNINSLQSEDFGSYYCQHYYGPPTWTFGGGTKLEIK = 10.40
